# System: P388 leukemia ip, CD2F1 mice, survival T/C
# Assay protocol: NCI In Vivo Anticancer Drug Screen. Data for tumor model P388 Leukemia (intraperitoneal) in CD2F1 (CDF1) mice
# Condition notes: endpoint: median survival time; dose: 100.0 mg/kg/injection; schedule: Q01DX009 (ip); vehicle: saline with Tween-80; higher = longer survival
Inconclusive results and toxic doses are left out.
Assay metric: T/C

Suppose we examine the compound Cc1ccc(C)c2c3c([nH]c12)-c1ccccc1CC3 ; what T/C value has been reported? 107 % of control

Look at this compound and give its reported T/C. CC(C)NCC(O)c1ccc(O)c(NC=O)c1 (configuration not stated) 104 % of control

Consider the compound shown here: CCCCCc1ccccc1 What is its recorded T/C? 106 % of control

Query: T/C; subject: CC(C)(N)C(=O)O 94 % of control

GET /values?readout=T/C&item= CC(C)(O)Cc1ccc(Cl)cc1 108 % of control

I would be grateful if you could share the reported T/C for O=C(NC(=NC(=Nc1ccc(Cl)cc1)c1ccccc1)c1ccccc1)c1ccccc1 . 95 % of control

Param item = O=C1/C(=C/c2ccccc2)Cc2ccccc21 ; retrieve measured T/C. 100 % of control

Which T/C is reported for this compound? O=C(NC(=S)Nc1ccsc1)c1ccccc1 88 % of control

Which T/C value is on record for CCN(C)c1cc(=O)c2ccc3ccccc3c2o1 ? 105 % of control

Requested read-out: T/C. Entry: COc1ccc(N=NS(=O)(=O)O)cn1 94 % of control

Need T/C, item CC(C)=C[Si](C)(C)C 110 % of control

Given the entry CCOC(=O)CSc1nnc(N)s1 , report its measured T/C. 116 % of control

Data provenance: PubChem BioAssay AID330
